Catalogue of sequences with associated switch fluorescence ratio
# System: ATP;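 further: ATP exposure 15 min at 22 °C before imaging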
# PROTOCOL SUMMARY: switch fluorescence ratio, 500 uM ATP over buffer (Cy3 cluster intensity, sum of 5 cycles each) (fold (ratio)); higher = stronger signal-on switching upon ATP binding; sequences stand for … in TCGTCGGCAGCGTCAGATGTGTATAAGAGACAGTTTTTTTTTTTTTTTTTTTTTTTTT…TC
# CONDITIONS USED: aptamer strand: ATP DNA aptamer (quencher-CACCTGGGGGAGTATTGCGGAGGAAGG + anchor), 100 nM annealed; ATP concentration: 500 uM
Give the value as a plain number.

Fill in the blank: the reported switch fluorescence ratio of GGGGAGTAGT is ____.
1.01

Would you kindly repeat that for CAGACTGGTT ?
1.01

What about this sequence? TGGTCTCTTT
1

Follow-up item: CGGGTAGTTG
0.995

Can you check CGTTGGGAGG next?
0.979

Others:
I have this sequence here, CGGGGCTAGG , and I need its recorded switch fluorescence ratio.
0.992

Same thing, different sequence: TTTCGTGTGA
1.01

Please answer likewise for CGGGCCGACT
1.01

Data origin: the supplement of paper PMC10126150
